Tested on: SR leukemia
Assay: NCI-60 one-dose screen, 48 h (100 = growth as untreated, 0 = no growth, -100 = all killed)
Conditions: 10 µM unless noted
The panel holds about 83,000 compounds, 20% with a hit somewhere; the sample as a whole holds those more often.
Label met when growth is at or above 50%; anything below gets not met.

| COMPOUND | ASSIGNED_LABEL |
| --- | --- |
| CCC(NC(c1cc2cccc3ccc4cccc1c4c32)c1nnnn1C(C)(C)C)C1CCCCC1 (stereo not given) | not met |
| CNC(=O)c1c(NC(=O)c2cccc(C(F)(F)F)c2F)sc2c1CCC(=O)C2 | not met |
| C#CCC#CCN1CCC[C@H]1C(=O)NCC(=O)OC | met |
| COc1ccc(/C=C(/C)c2ccc3ccc(OC)cc3[o+]2)c(O)c1 | not met |
| NS(=O)(=O)c1ccc(-n2cc(CN3CCCCC3)nn2)cc1 | met |
| CN(C)CCNC(=O)c1ccc(-c2nc3ccc4[nH]ncc4c3c3c2CCC3)cc1 | not met |
| Cc1ccc(-n2c(/C=C3\C(=O)Nc4ccccc43)ccc2CO)cc1 | not met |
| CNC(=O)c1cc(Oc2ccc3nc(NC(=O)c4cc(N5CCOCC5)cc(C(F)(F)F)c4)sc3c2)ccn1 | not met |
| CCOC(=O)c1c(Nc2ccccc2)nn2c(-c3ccc(OC)cc3)ccnc12 | met |

###

System: OVCAR-3 ovarian
Experiment: NCI-60 one-dose screen, 48 h
Conditions: 10 µM unless noted
Compounds without any hit were thinned out: in the full panel of roughly 83,000, 20% have a hit. Activity calls are given as the source filed them. Rule for the calls: active = growth percent below 10; inactive = the rest.
Outcomes: 1 (yes) = active, 0 (no) = inactive

| MOLECULE | SYSTEM_NAME | ASSIGNED_LABEL |
| --- | --- | --- |
| CCCn1cnc2c(c1=N)C(c1ccc(OC)cc1)c1sc3c(C)cccc3c1O2 (stereo not drawn) | OVCAR-3 ovarian | 1 (yes) |
| COc1ccc(NC(=O)Nc2ccc3c(ccn3C(=O)c3cccc(F)c3)c2)cc1 | OVCAR-3 ovarian | 0 (no) |
| CCCSc1nc(Nc2ccc(/C(C)=N\NC(N)=S)cc2)c(C#N)c(-c2ccccc2)n1 | OVCAR-3 ovarian | 0 (no) |
| CS(=O)(=O)Nc1cc(-c2ccc3ncc(C#N)c(Nc4cccc(Cl)c4F)c3c2)cnc1Cl | OVCAR-3 ovarian | 1 (yes) |
| CC1(C)[C@@H](O)CC[C@]2(C)[C@H]3CC[C@@H]4[C@H]5[C@H](C(=O)/C=C\c6ccncc6)CC[C@]5(O)CC[C@@]4(C)[C@]3(C)CC[C@@H]12 | OVCAR-3 ovarian | 0 (no) |
| COc1ccc(NC(=O)CSc2nnc(-c3ccc4nc(-c5ccc(OC)c(OC)c5)[nH]c4c3)o2)cc1OC | OVCAR-3 ovarian | 0 (no) |
| O=S(=O)(Oc1ccc(-c2nnc(Nc3ccccc3)s2)cc1)C(F)(F)C(F)(F)C(F)(F)C(F)(F)C(F)(F)C(F)(F)F | OVCAR-3 ovarian | 0 (no) |
| NC(=O)c1c(NC(=O)c2ccccc2C(F)(F)F)sc2c1CCC(=O)C2 | OVCAR-3 ovarian | 0 (no) |

###

# reported growth; entries follow
Test system: UACC-62 melanoma
Experiment: NCI-60 one-dose screen, 48 h (100 = growth as untreated, 0 = no growth, -100 = all killed)
Conditions: 10 µM unless noted
The panel holds about 83,000 compounds, 20% with a hit somewhere; the sample as a whole holds those more often.

| MOLECULE | growth, % |
| --- | --- |
| CCCn1cnc2c(c1=N)C(c1ccc(Cl)cc1)c1sc3c(C)cccc3c1O2 (stereo not drawn) | 5.02 |
| C=CCn1c(SCC(=O)Nc2ccc(C(=O)/C=C/c3cc(OC)c(OC)c(OC)c3)cc2)nnc1-c1c[nH]c2ccccc12 | 36.7 |
| O=C(NNc1nc2cc(F)ccc2n2c(CN3CC4CNCC4C3)ccc12)c1cnccn1 (stereo not drawn) | 1.75 |
| NC(N)=Nc1ccc(Oc2cccc(NC(N)=Nc3ccc(Cl)c(C(F)(F)F)c3)c2)cn1 | 40.2 |
| COc1cc(-c2nc(SCCC(C)C)nc(NNC(=O)c3ccncc3)c2C#N)cc(OC)c1OC | 38.1 |
| COc1ccc(-c2nc3cc(Cl)c(Cl)cc3n2CC(=O)N=Nc2c(O)[nH]c3ccc(OC)cc23)cc1 | 53.4 |
| CC(=O)C1=C(C)NC(NNC(N)=S)=NC1c1ccccc1 (stereo not drawn) | 93.3 |
| C=CCn1c(SCC(=O)Nc2ccc(C(=O)/C=C/c3cccc([N+](=O)[O-])c3)cc2)nnc1-c1c[nH]c2ccccc12 | 66.9 |
| O=C1/C(=C/C=C/c2ccco2)SC(=S)N1c1ccccc1 | 70.7 |
| NC(=O)c1cccc(C#CCNC[C@H]2C[C@@H](n3ccc4c(Cl)ncnc43)[C@H](O)[C@@H]2O)c1 | 96.1 |
| CNC(=O)c1cc(-c2ccc(NS(=O)(=O)c3ccc(C)cc3)cc2)nc2cccnc12 | 90.4 |
| CCOC(=O)c1c(Nc2ccccc2)nn2c(-c3ccc(OC)cc3)ccnc12 | 95.1 |
| COC(=O)C1(C)CCC[C@]2(C)[C@H]3C[C@H]4C(C(C)C)=C[C@]3(CC[C@@H]12)[C@H]1[C@@H]4[C@@H](OC(=O)c2ccco2)CC[C@@H]1OC(=O)c1ccco1 (stereo partly drawn) | 92.6 |
| COc1cc(Cn2cc3c(c2)-c2onc(CN4CCOCC4)c2CC3)cc(OC)c1OC | 78.8 |
| Cc1ccc(NC(=O)N[C@@H](Cc2cc(F)cc(F)c2)C(=O)NC2C(=O)N3C[C@H](O)C[C@H]3C(=O)N3CCCC[C@H]3C(=O)N[C@@H](CO)C(=O)N3C[C@H](C)C[C@H]3C(=O)O[C@H]2C)c(F)c1 (stereo partly drawn) | 30.9 |
| NC(N)=Nc1ccc(Oc2cccc(Oc3ccc(Cl)c(C(F)(F)F)c3)c2)cn1 | -77.5 |
| O=S(=O)(NC1c2ccccc2C[C@H]1O)c1ccc(Cl)cc1Cl (stereo partly drawn) | 74.9 |
| C#Cc1ccc(C(=O)NCc2ccc(/C=C/C(=O)c3nccn3C)cc2)cc1 | 21 |
